Reported Ratio by item:
Test system: Musca domestica
Experiment: Toxicity against SCR-susceptible Musca domestica (house fly) assessed as mortality compound administered by intrathoracic injection 1 to 2 hr after piperonyl butoxide treatment measured 24 hr post compound treatment relative to ryanodine
Type: functional
Answer as a number with no unit attached.

These solved cases illustrate the format of a correct answer.
INSERT INTO results (molecule_smiles, measured_on, measurement_name, measurement) VALUES
  ('CC(C)[C@@]1(O)[C@@H](OC(=O)c2ccc[nH]2)[C@@]2(O)[C@@]3(C)C[C@]4(O)O[C@@]5([C@H](O)[C@@H](CSCCO)CC[C@]35O)[C@@]2(O)[C@]14C', 'Musca domestica', 'Ratio', 6),
  ('CC(C)[C@@]1(O)[C@@H](OC(=O)c2ccc[nH]2)[C@]2(O)O[C@H]3[C@]45O[C@@](O)(C[C@@]2(C)[C@@]4(O)CC[C@H](C)[C@H]5O)[C@]31C', 'Musca domestica', 'Ratio', 120);

Which Ratio is listed for C=C1CC[C@]2(O)[C@]3(C)C[C@]4(O)O[C@@]2([C@@H]1O)[C@]1(O)O[C@@]3(NNC(N)=O)[C@H](OC(=O)c2ccc[nH]2)[C@](O)(C(C)C)[C@@]14C ? 6

For the molecule CC(C)[C@@]1(O)[C@@H](OC(=O)c2ccc[nH]2)C(=O)[C@@]2(C)C[C@]3(O)O[C@]4(C(=O)[C@]13C)[C@H](O)[C@@H](C)CC[C@@]42O , what Ratio is on record? 2

Which Ratio reading was recorded for the molecule C=C1CC[C@]2(O)[C@]3(C)C[C@]4(O)O[C@@]2([C@@H]1O)[C@]1(O)O[C@@]3(NNC(=O)c2ccccc2)[C@H](OC(=O)c2ccc[nH]2)[C@](O)(C(C)C)[C@@]14C ? 40

Reference source for all entries: ChEMBL document CHEMBL3046867
